The measurements presented in this section are drawn from patent US20140161799A1.

Biological target: T1, pig CD47 (pig, UniProt Q9GKE8 19-303)
T1 construct: whole, on cells; also called CD47 on pig red blood cells
T1 sequence (looked up): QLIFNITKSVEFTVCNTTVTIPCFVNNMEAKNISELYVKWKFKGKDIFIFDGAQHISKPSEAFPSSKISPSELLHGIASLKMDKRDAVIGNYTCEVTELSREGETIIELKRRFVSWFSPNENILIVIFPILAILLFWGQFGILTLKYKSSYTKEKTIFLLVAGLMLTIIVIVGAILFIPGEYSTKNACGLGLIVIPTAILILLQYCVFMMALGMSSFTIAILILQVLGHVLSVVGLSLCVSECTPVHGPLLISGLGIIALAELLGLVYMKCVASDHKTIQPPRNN
Assay: flow cytometry on RBCs, antibody 10 ng/ml
Each entry below carries its recorded mean fluorescence relative to chimeric antibody.
Readout type: mean fluorescence relative to chimeric antibody

Binder	Recorded measurement
pVxK7b-037-hum12-LC/pVxK7b-037-hum12-HC (antibody, human IgG1, V domains shown, Full-length human IgG1/kappa in CHO supernatant; Variable entries end within framework 4 (...FGQG / ...WGQG); also called Clone 12) VH: QVQLQESGPGLVKPGATVKISCKVSGYTFTNYYVFWVRQARGQRLEWIGDINPVNGDTNFNEKFKNRVTITADKSTSTAYMELSSLRSEDTAVYYCARGGYTMDYWGQG VL: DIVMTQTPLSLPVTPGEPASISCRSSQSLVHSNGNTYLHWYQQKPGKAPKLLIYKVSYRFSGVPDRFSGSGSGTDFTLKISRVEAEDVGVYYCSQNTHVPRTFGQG	1.4 fold of chimera
pVxK7b-037-hum20-LC/pVxK7b-037-hum20-HC (antibody, human IgG1, V domains shown, Full-length human IgG1/kappa in CHO supernatant; Variable entries end within framework 4 (...FGQG / ...WGQG); also called Clone 20) VH: QITLKESGPTLVKPTQTLTLTCTFSGYTFTNYYVFWVRQAPGQGLEWMGDINPVNGDTNFNEKFKNRVTITADKSTSTAYMELSSLRSEDTAVYYCARGGYTMDYWGQG VL: DIVMTQTPLSLPVTPGEPASISCRSSQSLVHSNGNTYLHWYLQKPGQSPQLLIYKVSYRFSGVPDRFSGSGSGTDFTLKISRVEAEDVGVYYCSQNTHVPRTFGQG	1.7 fold of chimera
